Attribution: PubChem BioAssay (NCI)

tested on: RPMI-8226 leukemia; assay: NCI tumour cell line growth inhibition, 48 h
recorded metric: TGI

Asked: Which value of TGI has been reported for CC(C)CC(NC(=O)C(Cc1ccccc1)NC(=O)[C@H]1CC[C@H](NC(=O)C(Cc2ccc(OC(C)(C)C)cc2)NC(=O)OC(C)(C)C)C1)C(N)=O (stereo partly drawn) in the records?
Given back: > 100 µM

Asked: Which value of TGI has been reported for `Nc1ncnc2c1ccn2COC(CO)CO` in the records?
Given back: > 100 µM

More entries:
Asked: Which value of TGI has been reported for `CC1(C)O[C@@H](CC/C=C/CO)[C@H](CC/C=C/CO)O1` in the records?
Given back: > 100 µM
